# Test system: HIV
# Experimental details: microbe, parasite or virus in culture
# Assay type: cell-based
# Assay setup: Human immunodeficiency virus 1, MT4; HIV-infected MT-4 cells, MTT method, 4 or 5 days at 37° C.; read-out: ED50 (the source's name)
EC50 reference

COC(=O)c1ccoc1Cn1c(Sc2cc(C)cc(C)c2)c(C(C)C)c(=O)[nH]c1=O : 0.018 µg/mL
Cc1cc(C)cc(Sc2c(C(C)C)c(=O)[nH]c(=O)n2CC2CC2)c1 : < 0.0002 µg/mL
Cc1cc(C)cc(Oc2c(C(C)C)c(=O)[nH]c(=O)n2Cc2cc(F)cc(F)c2)c1 : 0.022 µg/mL
Cc1cc(C)cc(Oc2c(C(C)C)c(=O)[nH]c(=O)n2CC2CC2)c1 : < 0.0002 µg/mL

EC50 for `Cc1cc(C)cc(Sc2c(C(C)C)c(=O)[nH]c(=O)n2CC2CCC2)c1` is 0.013 µg/mL

Attribution: patent US6987114B1
